Test system: cholesterol biosynthesis
METHOD_SUMMARY: Test A: Inhibition of cholesterol biosynthesis from acetate in vitro (rat liver microsome and sup fraction, [2-14C]sodium acetate)
Type: biochemical, male Wistar rat
CONDITION_NOTES: rat liver microsome + sup fraction, 2 hours at 37° C.
METRIC_NAME: IC50 (nM)

>  <COMPOUND>
CC[C@H](C)C(=O)O[C@H]1C[C@H](O)C=C2C=C[C@H](C)[C@H](CC[C@@H](O)C[C@@H](O)CC(=O)O)[C@H]21 [CS-514, reference compound]

>  <TGT>
cholesterol biosynthesis

>  <VAL>
9

$$$$

Value source: patent US5026698A
